tested on: 782815-120-R-J1-PDC complex spheroid viability; experiment: Anticancer human tumor 782815-120-R-J1-PDC patient-derived colon adenocarcinoma cell line growth inhibition [RAS]; conditions: second compound 0.00316 µM; first compound 0.00316 µM; hits give low values;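 note: spheroids exposed to compounds for 7 days before reading; 100% = DMSO vehicle control viability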
viability, T/C listing for selected compounds.
quantity_name: viability, T/C (%)

compound	quantity_name	numeric_readout
CCN1CCN(Cc2ccc(Nc3ncc(F)c(-c4cc(F)c5nc(C)n(C(C)C)c5c4)n3)nc2)CC1 + C=CC(=O)N1CCN(c2nc(OCC3CCCN3C)nc3c(F)c(-c4nc(N)cc(C)c4C(F)(F)F)c(Cl)cc23)C(C)C1	viability, T/C	95.3
CC(C)n1nc(-c2ccc3oc(N)nc3c2)c2c(N)ncnc21 + C=CC(=O)N1CCN(c2nc(OCC3CCCN3C)nc3c(F)c(-c4nc(N)cc(C)c4C(F)(F)F)c(Cl)cc23)C(C)C1	viability, T/C	96.1
O=C(c1ccc(F)c(F)c1Nc1ccc(I)cc1F)N1CC(O)([C@@H]2CCCCN2)C1 + C=CC(=O)N1CCN(c2nc(OCC3CCCN3C)nc3c(F)c(-c4nc(N)cc(C)c4C(F)(F)F)c(Cl)cc23)C(C)C1	viability, T/C	91.2
Nc1ccn(C2OC(CO)C(O)C2(F)F)c(=O)n1 (stereo not given) + C=CC(=O)N1CCN(c2nc(OCC3CCCN3C)nc3c(F)c(-c4nc(N)cc(C)c4C(F)(F)F)c(Cl)cc23)C(C)C1	viability, T/C	90.9
C=CC(=O)Nc1cc(Nc2nccc(-c3cn(C)c4ccccc34)n2)c(OC)cc1N(C)CCN(C)C + C=CC(=O)N1CCN(c2nc(OCC3CCCN3C)nc3c(F)c(-c4nc(N)cc(C)c4C(F)(F)F)c(Cl)cc23)C(C)C1	viability, T/C	92.7

Hello, the source for this data is PubChem BioAssay AID2060887, in case you need it.
